Origin of measurements: ChEMBL document CHEMBL4602617

Assay target: Non-receptor tyrosine-protein kinase TYK2 (Homo sapiens, UniProt P29597)
Sequence (P29597 whole entry, the tested form may be a part): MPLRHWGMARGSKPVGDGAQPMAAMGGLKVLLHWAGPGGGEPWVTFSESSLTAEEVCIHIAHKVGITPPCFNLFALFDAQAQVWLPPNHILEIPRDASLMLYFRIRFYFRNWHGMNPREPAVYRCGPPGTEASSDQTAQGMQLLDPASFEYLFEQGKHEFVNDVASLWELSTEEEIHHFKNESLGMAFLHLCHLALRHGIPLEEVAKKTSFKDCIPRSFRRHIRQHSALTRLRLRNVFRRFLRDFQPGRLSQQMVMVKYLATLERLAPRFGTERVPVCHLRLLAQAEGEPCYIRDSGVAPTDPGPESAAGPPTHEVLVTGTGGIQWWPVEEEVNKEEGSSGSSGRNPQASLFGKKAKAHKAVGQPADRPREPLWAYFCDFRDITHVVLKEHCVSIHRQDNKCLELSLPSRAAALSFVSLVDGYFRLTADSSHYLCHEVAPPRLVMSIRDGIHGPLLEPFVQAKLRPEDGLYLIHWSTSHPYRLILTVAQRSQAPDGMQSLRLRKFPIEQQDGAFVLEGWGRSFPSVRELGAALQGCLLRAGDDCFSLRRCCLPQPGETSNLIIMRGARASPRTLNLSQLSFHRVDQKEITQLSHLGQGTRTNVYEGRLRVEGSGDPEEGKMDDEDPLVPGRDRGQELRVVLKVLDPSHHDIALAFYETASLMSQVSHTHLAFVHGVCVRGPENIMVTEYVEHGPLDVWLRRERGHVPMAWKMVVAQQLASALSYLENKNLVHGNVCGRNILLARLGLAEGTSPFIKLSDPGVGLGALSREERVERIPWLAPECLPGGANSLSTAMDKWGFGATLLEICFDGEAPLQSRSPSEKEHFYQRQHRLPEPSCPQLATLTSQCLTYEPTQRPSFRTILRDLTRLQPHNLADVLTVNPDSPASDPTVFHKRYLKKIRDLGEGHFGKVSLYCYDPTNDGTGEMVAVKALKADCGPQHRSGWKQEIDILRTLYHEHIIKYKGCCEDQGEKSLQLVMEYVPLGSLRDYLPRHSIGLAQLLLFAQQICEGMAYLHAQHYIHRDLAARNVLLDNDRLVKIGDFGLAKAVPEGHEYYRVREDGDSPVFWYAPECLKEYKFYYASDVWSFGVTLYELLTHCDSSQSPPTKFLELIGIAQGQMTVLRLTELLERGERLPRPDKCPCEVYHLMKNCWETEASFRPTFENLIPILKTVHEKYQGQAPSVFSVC
Experiment description: Inhibition of recombinant human GST-tagged TYK2 catalytic domain (833 to 1187 residues) expressed in baculovirus expression system using tyrosine-3 peptide as substrate incubated for 60 mins in presence of ATP by Z'-LYTE assay
Value type: IC50

Dear colleague, I am looking for the recorded IC50 of the following molecule: C[C@@H]1C[C@H]1C(=O)N1CCN(c2cnc(C#N)c(-c3cnn(C)c3)n2)C[C@H]1C
> 100 µM

---

Assay target: BDNF/NT-3 growth factors receptor (Homo sapiens, UniProt Q16620)
Sequence (Q16620 whole entry, the tested form may be a part): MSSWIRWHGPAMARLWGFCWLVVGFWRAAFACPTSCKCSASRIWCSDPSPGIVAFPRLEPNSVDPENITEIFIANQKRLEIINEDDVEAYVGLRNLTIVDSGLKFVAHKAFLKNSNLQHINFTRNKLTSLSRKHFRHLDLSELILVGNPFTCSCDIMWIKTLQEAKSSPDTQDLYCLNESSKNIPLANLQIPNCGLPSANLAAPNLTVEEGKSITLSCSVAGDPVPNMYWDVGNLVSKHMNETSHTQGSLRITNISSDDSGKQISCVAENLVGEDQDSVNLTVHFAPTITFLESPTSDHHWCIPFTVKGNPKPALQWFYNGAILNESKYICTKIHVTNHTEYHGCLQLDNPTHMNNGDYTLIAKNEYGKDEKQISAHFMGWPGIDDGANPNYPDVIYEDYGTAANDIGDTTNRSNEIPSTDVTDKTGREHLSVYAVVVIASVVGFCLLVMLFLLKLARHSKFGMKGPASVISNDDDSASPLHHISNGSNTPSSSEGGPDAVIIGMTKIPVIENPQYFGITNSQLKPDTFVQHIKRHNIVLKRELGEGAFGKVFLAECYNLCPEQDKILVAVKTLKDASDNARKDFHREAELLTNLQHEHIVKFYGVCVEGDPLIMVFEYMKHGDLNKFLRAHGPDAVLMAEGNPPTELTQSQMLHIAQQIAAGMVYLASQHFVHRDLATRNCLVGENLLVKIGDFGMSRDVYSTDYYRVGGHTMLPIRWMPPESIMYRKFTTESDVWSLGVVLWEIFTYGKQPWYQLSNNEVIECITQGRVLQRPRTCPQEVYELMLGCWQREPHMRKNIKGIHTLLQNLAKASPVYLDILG
Experiment description: Inhibition of recombinant human His-tagged NTRK2 cytoplasmic domain (526 to 838 residues) expressed in baculovirus expression system using tyrosine-01 peptide as substrate incubated for 60 mins in presence of ATP by Z'-LYTE assay
pIC50: −log10 of the molar value.
Value type: pIC50

Form field: reported pIC50 of C[C@@H]1C[C@H]1C(=O)N1CCN(c2cnc(C#N)c(-c3cnn(C)c3)n2)C[C@H]1C
< 4.00

---

A collection of compounds and their measured IC50
Assay target: Phosphatidylinositol 4,5-bisphosphate 3-kinase catalytic subunit delta isoform (Homo sapiens, UniProt O00329)
Sequence (O00329 whole entry, canonical isoform): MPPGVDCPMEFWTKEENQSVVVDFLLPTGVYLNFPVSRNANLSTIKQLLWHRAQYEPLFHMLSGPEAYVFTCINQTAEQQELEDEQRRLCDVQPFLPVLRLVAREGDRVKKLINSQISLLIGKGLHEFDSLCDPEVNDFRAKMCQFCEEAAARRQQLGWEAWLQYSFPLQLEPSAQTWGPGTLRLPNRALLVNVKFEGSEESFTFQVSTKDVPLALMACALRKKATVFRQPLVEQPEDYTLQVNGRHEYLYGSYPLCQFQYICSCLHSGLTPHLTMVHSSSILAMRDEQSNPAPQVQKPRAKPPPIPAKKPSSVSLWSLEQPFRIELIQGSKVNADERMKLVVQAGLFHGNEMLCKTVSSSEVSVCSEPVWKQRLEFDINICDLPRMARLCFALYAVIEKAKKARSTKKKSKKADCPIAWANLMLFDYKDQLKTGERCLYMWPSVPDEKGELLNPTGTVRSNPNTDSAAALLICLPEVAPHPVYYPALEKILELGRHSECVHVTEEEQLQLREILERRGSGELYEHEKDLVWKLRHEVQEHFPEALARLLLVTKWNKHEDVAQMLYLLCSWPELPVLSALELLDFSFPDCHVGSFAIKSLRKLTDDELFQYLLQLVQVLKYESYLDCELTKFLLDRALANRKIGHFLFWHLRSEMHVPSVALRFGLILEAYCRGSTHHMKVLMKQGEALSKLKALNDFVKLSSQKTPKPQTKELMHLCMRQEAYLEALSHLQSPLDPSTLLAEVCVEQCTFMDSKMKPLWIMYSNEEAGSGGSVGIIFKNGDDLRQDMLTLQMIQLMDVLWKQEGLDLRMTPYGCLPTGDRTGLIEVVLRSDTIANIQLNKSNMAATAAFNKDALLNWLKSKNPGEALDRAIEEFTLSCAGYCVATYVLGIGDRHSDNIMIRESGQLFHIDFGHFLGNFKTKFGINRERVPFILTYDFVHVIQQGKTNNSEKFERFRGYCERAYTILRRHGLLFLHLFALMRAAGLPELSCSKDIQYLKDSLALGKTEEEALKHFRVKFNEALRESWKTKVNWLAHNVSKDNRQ
Experiment description: Inhibition of PI3K delta in human whole blood assessed as inhibition of anti-IgE-stimulated CysLt release in basophils preincubated for 30 mins followed by anti-IgE stimulation and measured after 20 mins
Assay type: tissue-based
# number only, unit nM dropped from output

Sample records with IC50:
Compound: Cn1cc(-c2ncc(C#N)c(N3C[C@@H]4C[C@H]3CN4S(=O)(=O)C3CC3)n2)cn1
IC50 [nM]: 4120

Compound: CC1CC1C(=O)N1CCN(c2nc(-c3cnn(C)c3)ncc2C#N)C[C@H]1C (mixture of isomers)
IC50 [nM]: 557

Compound: Cn1cc(-c2ncc(C#N)c(N3C[C@@H]4C[C@H]3CN4c3cccc(F)c3)n2)cn1
IC50 [nM]: 2960

Lab note: next compound to report on.
Bench note: what IC50 did Cn1cc(-c2ncc(C#N)c(N3C[C@@H]4C[C@H]3CN4C(=O)C3CC3)n2)cn1 show?
258

---

Assay target: Tyrosine-protein kinase FRK (Homo sapiens)
Sequence (P42685 whole entry): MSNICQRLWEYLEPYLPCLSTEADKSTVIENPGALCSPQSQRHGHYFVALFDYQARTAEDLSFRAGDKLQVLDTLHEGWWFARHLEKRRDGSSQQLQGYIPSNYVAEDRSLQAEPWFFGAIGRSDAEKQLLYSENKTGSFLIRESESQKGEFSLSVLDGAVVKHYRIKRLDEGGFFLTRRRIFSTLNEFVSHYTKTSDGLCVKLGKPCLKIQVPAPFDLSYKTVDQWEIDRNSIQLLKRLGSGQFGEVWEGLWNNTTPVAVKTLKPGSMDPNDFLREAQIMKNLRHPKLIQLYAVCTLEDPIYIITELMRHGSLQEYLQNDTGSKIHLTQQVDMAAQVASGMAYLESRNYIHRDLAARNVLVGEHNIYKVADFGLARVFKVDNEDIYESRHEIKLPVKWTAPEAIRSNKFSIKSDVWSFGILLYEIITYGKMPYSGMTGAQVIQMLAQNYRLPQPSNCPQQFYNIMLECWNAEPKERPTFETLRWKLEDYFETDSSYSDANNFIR
Experiment description: Inhibition of recombinant full length GST-tagged human FRK expressed in baculovirus expression system using tyrosine 1 as substrate after 1 hr in presence of ATP by ZYLTE assay
Value type: IC50

State the recorded IC50 for this entry: C[C@@H]1C[C@H]1C(=O)N1CCN(c2cnc(C#N)c(-c3cnn(C)c3)n2)C[C@H]1C
> 100 µM

---

Assay target: Cytochrome P450 2C9 (Homo sapiens, UniProt P11712)
Sequence (P11712 whole entry): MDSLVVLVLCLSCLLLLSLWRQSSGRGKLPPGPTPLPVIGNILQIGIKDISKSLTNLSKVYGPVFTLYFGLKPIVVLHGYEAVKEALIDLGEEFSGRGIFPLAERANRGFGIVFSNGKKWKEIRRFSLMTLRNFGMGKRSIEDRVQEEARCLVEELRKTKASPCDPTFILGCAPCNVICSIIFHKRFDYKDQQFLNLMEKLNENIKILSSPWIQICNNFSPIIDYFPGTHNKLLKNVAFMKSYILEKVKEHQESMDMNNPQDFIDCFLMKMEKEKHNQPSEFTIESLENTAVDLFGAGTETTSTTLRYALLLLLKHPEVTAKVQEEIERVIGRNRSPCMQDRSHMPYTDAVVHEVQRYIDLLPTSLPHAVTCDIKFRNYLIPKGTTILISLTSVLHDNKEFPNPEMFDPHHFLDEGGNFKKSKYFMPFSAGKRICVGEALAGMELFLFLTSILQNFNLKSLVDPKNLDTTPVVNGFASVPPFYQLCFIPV
pIC50: −log10 of the molar value.
Value type: pIC50

Short answer please: pIC50, Cytochrome P450 2C9 (Homo sapiens, UniProt P11712), entry C[C@@H]1C[C@H]1C(=O)N1CCN(c2cnc(C#N)c(-c3cnn(C)c3)n2)C[C@H]1C
< 4.30

---

Assay target: Tyrosine-protein kinase ABL1 (Homo sapiens, UniProt P00519, Y253F)
Experiment description: Inhibition of recombinant full length human His-tagged ABL1 Y253F mutant cytoplasmic domain expressed in baculovirus expression system using tyrosine-2 peptide as substrate incubated for 60 mins in presence of ATP by Z'-LYTE assay
pIC50: −log10 of the molar value.
Value type: pIC50

For C[C@@H]1C[C@H]1C(=O)N1CCN(c2cnc(C#N)c(-c3cnn(C)c3)n2)C[C@H]1C , what is its reported pIC50?
< 4.00
